Each entry below lists one item and its recorded inhibition at 400 µM value.
- EXPERIMENTAL_TARGET: TvG6PD::6PGL (Trichomonas vaginalis)
- Sequence (A2DBT5 entry or part of it): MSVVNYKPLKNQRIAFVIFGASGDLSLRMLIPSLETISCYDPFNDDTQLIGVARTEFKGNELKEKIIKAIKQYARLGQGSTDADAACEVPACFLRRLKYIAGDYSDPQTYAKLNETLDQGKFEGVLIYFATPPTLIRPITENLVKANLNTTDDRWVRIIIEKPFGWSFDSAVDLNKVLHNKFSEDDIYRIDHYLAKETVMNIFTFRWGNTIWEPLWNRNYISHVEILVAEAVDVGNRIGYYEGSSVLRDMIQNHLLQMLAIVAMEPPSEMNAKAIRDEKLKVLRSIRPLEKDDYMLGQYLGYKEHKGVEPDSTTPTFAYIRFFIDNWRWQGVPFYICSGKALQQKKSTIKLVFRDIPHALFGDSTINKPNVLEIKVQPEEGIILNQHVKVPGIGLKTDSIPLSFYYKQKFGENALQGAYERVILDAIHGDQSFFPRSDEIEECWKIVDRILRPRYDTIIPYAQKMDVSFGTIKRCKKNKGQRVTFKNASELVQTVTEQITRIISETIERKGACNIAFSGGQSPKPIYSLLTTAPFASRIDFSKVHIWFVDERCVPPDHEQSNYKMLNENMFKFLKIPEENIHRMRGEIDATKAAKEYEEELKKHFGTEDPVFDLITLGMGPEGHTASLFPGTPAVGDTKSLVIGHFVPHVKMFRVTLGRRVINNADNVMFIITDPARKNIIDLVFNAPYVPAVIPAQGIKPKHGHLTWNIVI
- ASSAY_COMMENT: TvG6PD::6PGL enzyme inactivation assay
- Assay type: biochemical, T. vaginalis
- CONDITION_NOTES: read-out: Inhibition (%) at 400 µM of TvG6PD::6PGL, 400 µM compound, 0.2 mg/mL enzyme, 37 °C, 2 h, relative to enzyme without inhibitor

Some compounds with known inhibition at 400 µM results, for comparison:
COMPOUND	MEAS_VALUE
Cc1c(OCC(F)(F)F)ccnc1C[S+]([O-])c1nc2ccc(N)cc2[nH]1 (stereo not shown)	12%
Cc1c(OCC(F)(F)F)ccnc1C[S+]([O-])c1nc2ccc([N+](=O)[O-])cc2[nH]1 (stereo not shown)	> 70%
[O-][S+](Cc1ccccn1)c1nc2ccccc2[nH]1 (stereo not shown)	7%

As a next step, examine the compound that follows.
Input COc1c(C)cnc(C[S+]([O-])c2nc3ccccc3[nH]2)c1C (stereo not shown) . Output inhibition at 400 µM: 47%

----------
Each entry below lists one item and its recorded pIC50 value.
- EXPERIMENTAL_TARGET: GlG6PD::6PGL (Giardia intestinalis, UniProt A8BWM5)
- Sequence (A8BWM5 entry or part of it): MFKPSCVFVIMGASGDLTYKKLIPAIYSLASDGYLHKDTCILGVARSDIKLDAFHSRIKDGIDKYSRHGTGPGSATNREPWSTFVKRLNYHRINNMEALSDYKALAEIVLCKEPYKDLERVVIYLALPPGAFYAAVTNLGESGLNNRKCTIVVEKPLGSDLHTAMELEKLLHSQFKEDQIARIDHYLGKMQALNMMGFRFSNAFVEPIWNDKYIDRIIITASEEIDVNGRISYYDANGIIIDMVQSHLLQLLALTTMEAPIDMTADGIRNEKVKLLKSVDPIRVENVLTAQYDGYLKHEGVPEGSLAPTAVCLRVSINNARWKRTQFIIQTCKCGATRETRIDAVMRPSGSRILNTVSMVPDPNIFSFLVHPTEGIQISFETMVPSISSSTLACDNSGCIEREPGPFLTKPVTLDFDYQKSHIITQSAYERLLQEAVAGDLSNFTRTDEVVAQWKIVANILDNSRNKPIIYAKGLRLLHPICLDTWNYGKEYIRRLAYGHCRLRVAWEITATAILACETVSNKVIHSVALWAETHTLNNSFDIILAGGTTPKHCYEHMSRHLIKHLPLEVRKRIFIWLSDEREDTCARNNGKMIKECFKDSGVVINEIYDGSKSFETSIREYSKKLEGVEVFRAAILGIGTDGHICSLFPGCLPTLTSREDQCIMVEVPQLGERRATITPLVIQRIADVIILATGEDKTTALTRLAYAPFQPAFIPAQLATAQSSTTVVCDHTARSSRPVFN
Remember, pIC50 is on a log scale: it is -log10 of the molar concentration.

Input COc1c(C)cnc(C[S+]([O-])c2nc3ccccc3[nH]2)c1C (centres unmarked) . Output pIC50: 4.62

Input Cc1c(OCC(F)(F)F)ccnc1C[S+]([O-])c1nc2ccc([N+](=O)[O-])cc2[nH]1 (centres unmarked) . Output pIC50: 4.82

----------
- EXPERIMENTAL_TARGET: GlG6PD::6PGL (Giardia intestinalis, UniProt A8BWM5)
- ASSAY_COMMENT: GlG6PD::6PGL enzyme inactivation assay
- Format: biochemical, G. lamblia
- CONDITION_NOTES: read-out: Inhibition (%) at 400 µM of GlG6PD::6PGL
Each entry below lists one item and its recorded inhibition at 400 µM value.
Your answer should be a plain number; it is taken to be in %.

Some molecules with known inhibition at 400 µM results, for comparison:
MOLECULE	RESULT_UNITS	inhibition at 400 µM
[O-][S+](Cc1ccccn1)c1nc2ccccc2[nH]1 (centres unmarked) [H-BZM1]	%	62
Cc1c(OCC(F)(F)F)ccnc1C[S+]([O-])c1nc2ccc(N)cc2[nH]1 (centres unmarked) [Compound H2N-BZM6]	%	100
O=[N+]([O-])c1ccc2nc([S+]([O-])Cc3ccccn3)[nH]c2c1 (centres unmarked) [Compound O2N-BZM7]	%	100

Input Cc1c(OCC(F)(F)F)ccnc1C[S+]([O-])c1nc2ccc([N+](=O)[O-])cc2[nH]1 (centres unmarked) [Compound O2N-BZM9] . Output inhibition at 400 µM: 100

Input COc1c(C)cnc(C[S+]([O-])c2nc3ccccc3[nH]2)c1C (centres unmarked) [H-BZM2] . Output inhibition at 400 µM: 100
